Where do these numbers come from? They come from PubChem BioAssay (NCATS).

Entries and their measured Potency follow.
# assay.overview: qHTS of pediatric cancer cell lines to identify multiple opportunities for drug repurposing: Primary screen for NB1643 cells (AID 1347099); note: potency is the fitted concentration of half-maximal effect; nearly all actives have a fitted effect of over 50% in size
# condition.details: NB1643 neuroblastoma viability, CellTiter-Glo luminescence, 48 h; series mostly up to 46 µM
Inconclusive results are not listed. Activity calls are given as the source filed them. Calls come from the whole dose curve; as a rule, active = well fitted cell-killing curve with a large enough effect; inconclusive = small, poorly fitted or top-dose-only effect; inactive = no such curve, though single readings can be large or run the other way.

Consider the worked cases shown below.
CC1(C)CC(=O)c2c(C(F)(F)F)nn(-c3ccc(C(N)=O)c(NC4CCC(OC(=O)CN)CC4)c3)c2C1 (stereo not given) : 0.235 µM (active)
COc1cccc(-c2ccc(NC(=O)C3=C(C(=O)O)CCC3)c(F)c2)c1 : 5.26 µM (active)
CC[C@H]1CN2CCc3cc(OC)c(OC)cc3[C@H]2C[C@@H]1C[C@@H]1NCCc2cc(OC)c(OC)cc21 : 0.418 µM (active)
Cc1cc(Nc2cc(N3CCN(C)CC3)nc(Sc3ccc(NC(=O)C4CC4)cc3)n2)n[nH]1 : 20.9 µM (active)

We next turn to a different molecule, shown below.
Please give the measured Potency for this molecule: O=C(Nc1ncc(-c2cc(C(F)F)nn2-c2c(Cl)cccc2Cl)s1)C1CC1
3.32 µM (active)
